Measured Survival by item
System Tested: Platelet-activating factor receptor (Mus musculus) (UniProt Q62035)
Sequence (Q62035 whole entry): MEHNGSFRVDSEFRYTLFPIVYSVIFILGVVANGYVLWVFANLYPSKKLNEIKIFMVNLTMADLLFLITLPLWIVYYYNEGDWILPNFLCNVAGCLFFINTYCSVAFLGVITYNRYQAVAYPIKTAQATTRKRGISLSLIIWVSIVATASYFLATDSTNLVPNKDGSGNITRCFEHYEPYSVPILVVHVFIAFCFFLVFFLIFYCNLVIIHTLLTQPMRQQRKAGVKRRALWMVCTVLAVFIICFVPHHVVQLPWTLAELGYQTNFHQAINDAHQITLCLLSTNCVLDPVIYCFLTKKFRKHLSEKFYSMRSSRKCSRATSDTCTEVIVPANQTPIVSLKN
Assay Notes: Protection of PAF induced lethality in mouse after intraperitoneal dose of 1 mg/kg in saline 0.5 hr prior to an LD90 of PAF
Assay type: functional, organism-based
Parameters: dose 1 mg/kg
Please state the figure in %; there is no need to write the unit.

CCCCCCCCCCCCCCOc1ccc(C(=O)N(Cc2cccc[n+]2CC)C(C)=O)cc1OC: 58
CCCCCCCCCCCCCCOc1ccc(C(=O)NC(=O)c2ccc[n+](CCC)c2)cc1OC: 42
CCCCCCCCCCCCCCCCCCNC(=O)Oc1ccc(C(=O)N(Cc2cccc[n+]2C)C(C)=O)cc1C(C)(C)C: 29

The value of Survival measured for the molecule CCCCCCCOc1ccc(C(=O)N(Cc2cccc[n+]2C)C(C)=O)cc1OCCCCCCC turned out to be 45

The value of Survival measured for the molecule CCCCCCCCCCCCCCOc1ccc(C(=O)N(Cc2cccc[n+]2CCC)C(C)=O)cc1OC turned out to be 47

The value of Survival measured for the molecule CCCCCCCCCCCCCCOc1ccc(C(=O)N(Cc2cccc[n+]2Cc2ccccc2)C(C)=O)cc1 turned out to be 0

The value of Survival measured for the molecule CCCCCCCCCCCCCCOc1ccc(C(=O)N(Cc2cc[n+](C)cc2)C(C)=O)cc1C(C)(C)C turned out to be 27

The value of Survival measured for the molecule CCCCCCCCCCCCCCOc1ccc(COC(=O)NCc2cccc[n+]2CC)cc1 turned out to be 36

The value of Survival measured for the molecule CCCCCCCCCCCCCCOc1ccc(C(=O)N(Cc2cccc[n+]2C)C(C)=O)cc1C(C)(C)C turned out to be 64

All figures here come from ChEMBL document CHEMBL1127088.
